The entries below are paired with their reported INHIBITION.
Test system: Plasmodium berghei
Test Name: Screen against P. berghei liver stage (PbLuc), transformed with Luciferase, at 10uM
Format: functional, HepG2
Settings: tested at 10 uM
About 8,600 (12%) of roughly 69,000 compounds showed an effect of 50% or more. Shown is part of a subset that was picked to be rich in strong results.
Measured Attribute: INHIBITION (%)

INSERT INTO measurements (compound, unit_of_measurement, measured) VALUES
  ('Cc1ccc2c(c1)C(N(C)C)CC21CCN(CCO)CC1 (configuration not stated)', '%', -57.1),
  ('O=C1N(Cc2cccc(F)c2)CCC12CCCN(c1ncc(F)cn1)C2 (configuration not stated)', '%', 8.66),
  ('CCc1nc(C)sc1CN1CC[C@@](O)(C2CCOCC2)[C@H](C)C1', '%', -10.9),
  ('CC(C)NC(=O)NCc1ccc(C(=O)NC(C)Cn2cccn2)cc1 (configuration not stated)', '%', 3.73),
  ('CN1C(=O)CC(C(=O)O)C12CCN(c1ccc3c(n1)CCCC3)CC2 (configuration not stated)', '%', -11.7),
  ('OC1(CNCCc2nc3c(s2)CCCC3)CNCCOC1 (configuration not stated)', '%', -12.1),
  ('CN(C)C1CC2(CCN(C(=O)C3(C#N)CC3)CC2)c2ccccc21 (configuration not stated)', '%', 57.5),
  ('Cc1ccn(CCC(=O)N2CCCC(Cc3cccnc3)C2)n1 (configuration not stated)', '%', 41.2),
  ('Cn1ccc(C(=O)N2CCOC(c3ccccn3)C2)cc1=O (configuration not stated)', '%', -5.71),
  ('CC(CC(=O)c1ccccc1)NC(=O)c1ccon1 (configuration not stated)', '%', 28.2),
  ('CSc1nsc(NC(=O)N(C)Cc2ccc3c(c2)OCO3)n1', '%', -29.6),
  ('O=C(CCC(=O)N1CCNC(=O)C1c1cccc(F)c1)NC1CCCC1 (configuration not stated)', '%', 55.5),
  ('Cc1c(C)c2c(c(C)c1O)CC[C@](C)(C(=O)O)O2 [(R)-TROLOX]', '%', -10.3),
  ('CCOC1COC2(CCN(S(=O)(=O)c3ccc(F)cc3)CC2)C1 (configuration not stated)', '%', 45.7),
  ('O=C(CCc1ccccc1F)N1CCCC(OCc2cccnc2)C1 (configuration not stated)', '%', 48.8),
  ('CN(C)C1COC2(CCN(S(=O)(=O)c3ccc(F)cc3)CC2)C1 (configuration not stated)', '%', 57.5),
  ('Cc1cccc(S(=O)(=O)N2CCC3(CC2)CC(N(C)C)CO3)c1 (configuration not stated)', '%', 72),
  ('CCN1C[C@H]2CCN(C(=O)NC)CC[C@H]2S1(=O)=O', '%', -0.813),
  ('Cc1ccc(C2CN(C(=O)c3ccn(C)c(=O)c3)CCO2)nc1 (configuration not stated)', '%', 44.8),
  ('CC(C)C(=O)N1CCCC(Cc2cccnc2)C1 (configuration not stated)', '%', 16.2),
  ('O=c1[nH]c(N2CCOCC2)nc2c1CN(Cc1cccnc1)CC2', '%', -4.51),
  ('COC[C@@]12CCO[C@@H]1CCN(C(=O)c1ccc(F)c(F)c1)C2', '%', -30.6),
  ('Cn1nccc1CCC(=O)N1CCCC(c2cnccn2)C1 (configuration not stated)', '%', 25.6),
  ('COC1COC2(CCN(S(=O)(=O)c3ccc(F)cc3)CC2)C1 (configuration not stated)', '%', 32.1),
  ('O=C1NCCN(C(=O)CCN2CCCO2)C1c1cccc(F)c1 (configuration not stated)', '%', 5.15),
  ('Cc1cc(N2CCCC(c3n[nH]c4ncccc34)C2)ncn1 (configuration not stated)', '%', 26.3),
  ('Cc1ccc(C2CSCCN2C(=O)c2ccnc(N(C)C)c2)o1 (configuration not stated)', '%', 12.3),
  ('COCc1nc(C(=O)NS(=O)(=O)c2ccc(F)c(F)c2)cs1', '%', 21.1),
  ('CSc1ccc(C(=O)N2CC(=O)N(CC(C)(C)C)CC(O)C2)cc1 (configuration not stated)', '%', 37.4),
  ('Cc1ccc(C)c(S(=O)(=O)NCCC(=O)NCc2ccoc2)c1', '%', -0.514),
  ('COc1ccccc1CCC(=O)N1CCCC(OCc2cccnc2)C1 (configuration not stated)', '%', 25.8),
  ('CN1CCC/C1=N\S(=O)(=O)c1ccc(NC(=O)c2cccs2)cc1', '%', 23.4),
  ('COCC(=O)N1CCC2(CC1)CC(CC(=O)NC1CC1)c1ccccc12 (configuration not stated)', '%', 25.6),
  ('Cn1nccc1CCC(=O)N1CCCC(Cc2cccnc2)C1 (configuration not stated)', '%', 56),
  ('COc1cc(C(=O)N2C[C@@H]3CC[C@H]2CN(Cc2cscn2)C3)ccn1', '%', -16.3),
  ('CCOC1COC2(CCN(S(=O)(=O)c3cccc(F)c3)CC2)C1 (configuration not stated)', '%', 29.6),
  ('CCOC1COC2(CCN(S(=O)(=O)c3cccc(C)c3)CC2)C1 (configuration not stated)', '%', 27.6),
  ('Cn1ccc(C(=O)N2CCOC(c3ccccc3)C2)cc1=O (configuration not stated)', '%', 50.5),
  ('CC(C)c1noc(CCCC(=O)NCCOc2ccccc2)n1', '%', 46.4),
  ('CN(Cc1cc(C(C)(C)C)n[nH]1)C(=O)c1ccc2nccn2c1', '%', 48.3),
  ('O=C1NCCN(C(=O)CN2CCOC2=O)C1c1cccc(F)c1 (configuration not stated)', '%', 32),
  ('CN(C)C(=O)c1ccn(COc2ccccc2Cl)n1', '%', -28),
  ('O=C(CCn1ncc2ccccc21)N1CCCC(Cc2cccnc2)C1 (configuration not stated)', '%', 53),
  ('Cc1cnccc1NCCNC(=O)[C@H]1CNC[C@H](C(=O)N2CCCC2)C1', '%', 15.9),
  ('O=C(NC1CC1)N1CCC2(CC1)CC(N1CCOCC1)c1ccccc12 (configuration not stated)', '%', 43),
  ('CC(C)c1noc(CS(=O)(=O)CC(=O)NCCOc2ccccc2)n1', '%', 61.5),
  ('CN(C(=O)NCc1ccsc1)C1CCN(c2ccccc2)C1=O (configuration not stated)', '%', -10.2);

---

System: Plasmodium berghei
Test Name: Screen against P. berghei liver stage (PbLuc), transformed with Luciferase, at 10uM
Type: functional, HepG2
Settings: tested at 10 uM
Out of some 69,000 compounds screened, about 8,600 (12%) showed an effect of 50% or more. This excerpt belongs to a sample that is enriched for strong results.
Measured Attribute: INHIBITION (%)

INSERT INTO measurements (compound, measured) VALUES
  ('Cc1nnc(NCC2(c3ccccc3)CCOCC2)c(C#N)c1C', 6.67),
  ('CCC(=O)c1ccc(OCC(=O)N(C)C(C)c2ccon2)cc1 (stereo not given)', 20.6),
  ('CCc1ccc(C(COC)NC(=O)c2ccc(NC(C)=O)cc2)o1 (stereo not given)', 18.4),
  ('NC1(CN2CCOCC2)CCCCC1', 8.12),
  ('CCOC(=O)N1CCC2(CC1)N=C(CCC(C)C)NC2=O', -65),
  ('Cc1nn(C)cc1-c1nn2c(C(F)(F)F)nnc2s1', -15.2),
  ('CCn1nc(C)cc1C(=O)NCc1noc(C(C)(C)C)n1', 27.5),
  ('Cn1ccc(C(=O)Nc2nccn2Cc2ccccc2Cl)cc1=O', 9.91),
  ('COCCOc1cc(C)ccc1NC(=O)N(C)Cc1cnn(C)c1', -58),
  ('COc1cc(CCC(=O)NC2CCN(C)CC2)ccc1OCC(F)(F)F', -14.7),
  ('O=C(CN1CCCCC1=O)N1CCC2(CC1)[C@H](O)C[C@@H]2O', 44),
  ('Cc1ccc(C(=O)N2CCCCC2c2[nH]ncc2S(C)(=O)=O)s1 (stereo not given)', 36.7),
  ('CNC(=O)CN1CCO[C@H]2CN(C(=O)C3CC3)C[C@H]21', -8.85),
  ('Cc1nnc(NCC2(c3ccccc3)CCC2)c(C#N)c1C', 92.1),
  ('O=c1occ(CN2CCSCC2)c(O)c1CN1CCCC1', 4.93),
  ('CNc1cc(N2CCCC2CNCc2ccco2)ncn1 (stereo not given)', 59.8),
  ('O=C(O)C1(Cc2ccccc2Cl)CCN(c2ncnc3[nH]ccc23)CC1', 43.3),
  ('CN(Cc1ccncc1)C(=O)NC1CCCN(c2ncccn2)C1 (stereo not given)', 36.1),
  ('CC(C)c1nnc2n1CC(CNCc1ccsc1)CC2 (stereo not given)', 5.85),
  ('COc1ccccc1C1(CNc2nnc(C)c(C)c2C#N)CCCC1', 97.1),
  ('CC(C)CCC1=NC2(CCN(C(=O)N3CCN(C)CC3)CC2)C(=O)N1', -23.5),
  ('CNc1cc(N2CCCC2CNCc2ccc(Cl)o2)ncn1 (stereo not given)', 56.9),
  ('CNc1cc(N2CCCC2CNCc2cccs2)ncn1 (stereo not given)', 36.8),
  ('CNc1cc(N2CCCC2CNCc2ccccn2)ncn1 (stereo not given)', -21.3),
  ('Cc1ccccc1C1(CNc2nnc(C)c(C)c2C#N)CCOCC1', 17.4);
